- system_under_test: Mu-type opioid receptor (Rattus norvegicus, UniProt P33535)
- Sequence (P33535 whole entry): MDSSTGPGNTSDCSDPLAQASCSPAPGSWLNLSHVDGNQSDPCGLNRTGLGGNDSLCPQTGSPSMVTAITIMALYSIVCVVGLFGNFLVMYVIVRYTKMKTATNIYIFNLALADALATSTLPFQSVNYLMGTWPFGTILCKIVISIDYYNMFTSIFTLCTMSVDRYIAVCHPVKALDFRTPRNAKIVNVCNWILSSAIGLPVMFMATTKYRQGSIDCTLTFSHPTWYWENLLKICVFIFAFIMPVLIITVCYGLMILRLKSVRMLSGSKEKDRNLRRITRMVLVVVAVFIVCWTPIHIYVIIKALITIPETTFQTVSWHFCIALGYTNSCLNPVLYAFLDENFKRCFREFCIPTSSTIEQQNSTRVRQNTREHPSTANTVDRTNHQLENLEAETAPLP
- test: Displacement of [3H]diprenorphine from opioid receptor mu 1 on crude membrane fractions obtained from whole rat brain (minus cerebellum)
- Assay type: tissue-based
Quick reference: pKi of the listed items.
# reply with the number alone; pKi is -log10 of concentration in mol/L

Worked set:
INSERT INTO assay_data (compound, system_under_test, reported_result) VALUES
  ('CC(C)CC(NC(=O)[C@]1(c2ccccc2)CC1CN1CC[C@@]2(C)c3cc(O)ccc3CC1C2C)C(=O)NCCCN=C(N)N (stereo partly drawn)', 'Mu-type opioid receptor (Rattus norvegicus, UniProt P33535)', 5.61),
  ('CC(C)CC(NC(=O)[C@]1(c2ccccc2)CC1CN1CC[C@@]2(C)c3cc(O)ccc3CC1C2C)C(=O)NCCCN (stereo partly drawn)', 'Mu-type opioid receptor (Rattus norvegicus, UniProt P33535)', 5.37),
  ('CC(C)CC(NC(=O)CNC(=O)[C@]1(c2ccccc2)CC1CN1CC[C@@]2(C)c3cc(O)ccc3CC1C2C)C(=O)NCCCCN (stereo partly drawn)', 'Mu-type opioid receptor (Rattus norvegicus, UniProt P33535)', 4.88),
  ('CC(C)CC(NC(=O)[C@]1(c2ccccc2)CC1CN1CC[C@@]2(C)c3cc(O)ccc3CC1C2C)C(=O)NCCCCCNC(=N)N (stereo partly drawn)', 'Mu-type opioid receptor (Rattus norvegicus, UniProt P33535)', 5.55),
  ('CCCCC(=N)NCCCCCCNC(=O)C(CC(C)C)NC(=O)[C@]1(c2ccccc2)CC1CN1CC[C@@]2(C)c3cc(O)ccc3CC1C2C (stereo partly drawn)', 'Mu-type opioid receptor (Rattus norvegicus, UniProt P33535)', 5.65);

Given item CC(C)CC(NC(=O)[C@]1(c2ccccc2)CC1CN1CC[C@@]2(C)c3cc(O)ccc3CC1C2C)C(=O)NCCCCN (stereo partly drawn) , the value recorded as its pKi is 5.47

Reported pKi for CC(C)CC(NC(=O)CNC(=O)[C@]1(c2ccccc2)CC1CN1CC[C@@]2(C)c3cc(O)ccc3CC1C2C)C(=O)NCCCCCCN (stereo partly drawn) was 5.09

The compound CCC(=N)NCCCNC(=O)C(CC(C)C)NC(=O)[C@]1(c2ccccc2)CC1CN1CC[C@@]2(C)c3cc(O)ccc3CC1C2C (stereo partly drawn) showed pKi equal to 5.30

----------
- system_under_test: Mu-type opioid receptor (Rattus norvegicus, UniProt P33535)
- test: Tested for binding affinity by [3H]diprenorphine displacement for Opioid receptor mu 1 was carried on crude membrane fractions obtained from the whole rat brain minus cerebellum..
- Type: tissue-based
pKi: −log10 of the molar value.
reported_property: pKi

Note to self: pKi recorded for COC(=O)[C@]1(c2ccccc2)C[C@@H]1CN1CC[C@@]2(C)c3cc(O)ccc3CC1[C@@H]2C was < 4.60

----------
- system_under_test: Kappa-type opioid receptor (Cavia porcellus)
- Sequence (P41144 whole entry): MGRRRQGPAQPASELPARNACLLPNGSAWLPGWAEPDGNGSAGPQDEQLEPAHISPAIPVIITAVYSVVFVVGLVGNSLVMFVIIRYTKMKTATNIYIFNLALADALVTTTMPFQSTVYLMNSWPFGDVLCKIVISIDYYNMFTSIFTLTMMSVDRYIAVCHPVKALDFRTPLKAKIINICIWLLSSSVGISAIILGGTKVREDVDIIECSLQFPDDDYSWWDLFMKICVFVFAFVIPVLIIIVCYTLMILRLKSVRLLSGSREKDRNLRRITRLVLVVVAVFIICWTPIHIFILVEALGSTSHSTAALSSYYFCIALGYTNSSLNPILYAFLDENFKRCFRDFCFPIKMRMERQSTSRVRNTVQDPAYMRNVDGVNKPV
This listing pairs molecules with measured Ki.
Field: numeric (nM). Do not append units.

Recorded Ki, per entry:
INSERT INTO assay_data (molecule, reported_property, reported_result) VALUES
  ('CC(C)CC(NC(=O)CNC(=O)[C@]1(c2ccccc2)CC1CN1CC[C@@]2(C)c3cc(O)ccc3CC1C2C)C(=O)NCCCNC(=N)N (some centres not stated)', 'Ki', 72.5),
  ('CC(C)CC(NC(=O)CNC(=O)[C@]1(c2ccccc2)CC1CN1CC[C@@]2(C)c3cc(O)ccc3CC1C2C)C(=O)NCCCCN=C(N)N (some centres not stated)', 'Ki', 67.2),
  ('CC[C@H](C)[C@H](NC(=O)[C@H](CCCN=C(N)N)NC(=O)[C@H](CCCN=C(N)N)NC(=O)[C@]1(c2ccccc2)C[C@@H]1CN1CC[C@@]2(C)c3cc(O)ccc3CC1C2C)C(=O)OC (some centres not stated)', 'Ki', 78.4),
  ('CC(C)CC(NC(=O)CNC(=O)[C@]1(c2ccccc2)CC1CN1CC[C@@]2(C)c3cc(O)ccc3CC1C2C)C(=O)NCCCCCNC(=N)N (some centres not stated)', 'Ki', 47.5),
  ('CC(C)CC(NC(=O)[C@]1(c2ccccc2)CC1CN1CC[C@@]2(C)c3cc(O)ccc3CC1C2C)C(=O)NCCCCCNC(=N)N (some centres not stated)', 'Ki', 216),
  ('CC(C)CC(NC(=O)[C@]1(c2ccccc2)CC1CN1CC[C@@]2(C)c3cc(O)ccc3CC1C2C)C(=O)NCCCCCCN (some centres not stated)', 'Ki', 242),
  ('CCC(=N)NCCCCCNC(=O)C(CC(C)C)NC(=O)CNC(=O)[C@]1(c2ccccc2)CC1CN1CC[C@@]2(C)c3cc(O)ccc3CC1C2C (some centres not stated)', 'Ki', 68.4),
  ('CCCC(=N)NCCCCCCNC(=O)C(CC(C)C)NC(=O)[C@]1(c2ccccc2)CC1CN1CC[C@@]2(C)c3cc(O)ccc3CC1C2C (some centres not stated)', 'Ki', 122),
  ('CCCCC(=N)NCCCCNC(=O)C(CC(C)C)NC(=O)[C@]1(c2ccccc2)CC1CN1CC[C@@]2(C)c3cc(O)ccc3CC1C2C (some centres not stated)', 'Ki', 116),
  ('CCCC(=N)NCCCCCNC(=O)C(CC(C)C)NC(=O)[C@]1(c2ccccc2)CC1CN1CC[C@@]2(C)c3cc(O)ccc3CC1C2C (some centres not stated)', 'Ki', 156);

Tested system Kappa-type opioid receptor (Cavia porcellus); Ki recorded for CC(C)CC(NC(=O)CNC(=O)[C@]1(c2ccccc2)CC1CN1CC[C@@]2(C)c3cc(O)ccc3CC1C2C)C(=O)NCCCCN (some centres not stated) was 270

Measured Ki for this entry CCCC(=N)NCCCCNC(=O)C(CC(C)C)NC(=O)[C@]1(c2ccccc2)CC1CN1CC[C@@]2(C)c3cc(O)ccc3CC1C2C (some centres not stated) on Kappa-type opioid receptor (Cavia porcellus): 203

Tested system Kappa-type opioid receptor (Cavia porcellus); Ki recorded for CC(C)CC(NC(=O)[C@]1(c2ccccc2)CC1CN1CC[C@@]2(C)c3cc(O)ccc3CC1C2C)C(=O)NCCCCCN (some centres not stated) was 276

Form field, Ki with Kappa-type opioid receptor (Cavia porcellus), item CCCCC(=N)NCCCCCNC(=O)C(CC(C)C)NC(=O)CNC(=O)[C@]1(c2ccccc2)CC1CN1CC[C@@]2(C)c3cc(O)ccc3CC1C2C (some centres not stated) : 6.7
